All figures here come from ChEMBL document CHEMBL5291721.

Molecular target: 5-hydroxytryptamine receptor 2C (Homo sapiens); also: assay procedure not described here
Sequence (P28335 whole entry): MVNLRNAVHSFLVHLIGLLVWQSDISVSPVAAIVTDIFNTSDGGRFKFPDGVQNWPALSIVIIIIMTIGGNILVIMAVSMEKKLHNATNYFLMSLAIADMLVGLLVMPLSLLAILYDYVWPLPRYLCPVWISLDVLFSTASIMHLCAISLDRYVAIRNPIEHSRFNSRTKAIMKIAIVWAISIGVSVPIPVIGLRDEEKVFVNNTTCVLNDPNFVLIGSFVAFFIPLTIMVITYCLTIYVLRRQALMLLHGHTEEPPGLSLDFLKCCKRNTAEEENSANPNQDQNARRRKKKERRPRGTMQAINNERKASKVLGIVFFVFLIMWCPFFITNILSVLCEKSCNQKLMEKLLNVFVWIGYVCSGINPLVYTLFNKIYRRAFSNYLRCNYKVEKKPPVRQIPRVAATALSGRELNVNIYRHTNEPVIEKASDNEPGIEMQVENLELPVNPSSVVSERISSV
VALUE_TYPE: AC50

A selection of reference data follows.
[
  {
    "MOLECULE": "Nc1cc(N2CCCCC2)nc(N)[n+]1[O-]",
    "AC50": "> 30 µM"
  },
  {
    "MOLECULE": "CC(=O)Oc1cccc2c1C(=O)c1c(OC(C)=O)cc(C(=O)O)cc1C2=O",
    "AC50": "> 30 µM"
  },
  {
    "MOLECULE": "CN(C)CCC=C1c2ccccc2CCc2ccccc21",
    "AC50": "0.15 µM"
  },
  {
    "MOLECULE": "CC(=O)NC[C@H]1CN(c2ccc(N3CCOCC3)c(F)c2)C(=O)O1",
    "AC50": "> 30 µM"
  },
  {
    "MOLECULE": "CC(=O)Oc1ccccc1C(=O)O",
    "AC50": "> 30 µM"
  }
]

Consider "COc1ccc(C(=O)c2ccccc2)c(O)c1" . Its measured AC50 is > 30 µM

Memo: CC1=C(/C=C/C(C)=C/C=C/C(C)=C/C(=O)Oc2c(C)c(C)c3c(c2C)CCC(C)(CCCC(C)CCCC(C)CCCC(C)C)O3)C(C)(C)CCC1 (configuration not stated) , reported AC50: > 30 µM

"OCC(CO)N[C@H]1C[C@](O)(CO)[C@@H](O)[C@H](O)[C@H]1O" has a reported AC50 of > 30 µM

For reference, reported AC50 for C[C@@H](O)[C@H]1C(=O)N2C(C(=O)O)=C(SCCN=CN)C[C@H]12 [IMIPENEM ANHYDROUS] stands at > 300 µM

====

Here's what we have: AC50 numbers for Adenosine receptor A3 (Homo sapiens).

Summary line: CC(NC(C)(C)C)C(=O)c1cccc(Cl)c1 (stereo not drawn) [BUPROPION] , Adenosine receptor A3 (Homo sapiens), reported AC50 = > 30 µM

Record for Nc1c2c(nc3ccccc13)CCCC2O (stereo not drawn) [VELNACRINE] under target or system Adenosine receptor A3 (Homo sapiens): AC50 reported as > 30 µM

Short answer on Adenosine receptor A3 (Homo sapiens) for CC1(C)O[C@@H]2C[C@H]3[C@@H]4CCC5=CC(=O)C=C[C@]5(C)[C@@]4(F)[C@@H](O)C[C@]3(C)[C@]2(C(=O)CO)O1 [TRIAMCINOLONE ACETONIDE] , AC50: > 30 µM

AC50 for Adenosine receptor A3 (Homo sapiens) with input CCCCCCCC(=O)CC[C@@H]1[C@@H](C/C=C\CCCC(=O)O)[C@@H](O)C[C@H]1O [UNOPROSTONE] equals > 30 µM

// compound CO/N=C(\C(=O)N[C@@H]1C(=O)N2C(C(=O)O)=C(CSc3nc(C)c(CC(=O)O)s3)CS[C@H]12)c1csc(N)n1 [CEFODIZIME] , assay Adenosine receptor A3 (Homo sapiens), AC50 value: > 30 µM

Bench note, Adenosine receptor A3 (Homo sapiens): CCOc1ccccc1OCCN[C@H](C)Cc1ccc(OC)c(S(N)(=O)=O)c1 [TAMSULOSIN] , AC50 reads > 30 µM

Adenosine receptor A3 (Homo sapiens) data for O=C1CN=C(c2ccccc2Cl)c2cc([N+](=O)[O-])ccc2N1 [CLONAZEPAM] ; its AC50: > 30 µM

====

biological target: Voltage-dependent L-type calcium channel subunit alpha-1C (Rattus norvegicus, UniProt P22002); type: functional; also: assay procedure not described here
Sequence (P22002 whole entry): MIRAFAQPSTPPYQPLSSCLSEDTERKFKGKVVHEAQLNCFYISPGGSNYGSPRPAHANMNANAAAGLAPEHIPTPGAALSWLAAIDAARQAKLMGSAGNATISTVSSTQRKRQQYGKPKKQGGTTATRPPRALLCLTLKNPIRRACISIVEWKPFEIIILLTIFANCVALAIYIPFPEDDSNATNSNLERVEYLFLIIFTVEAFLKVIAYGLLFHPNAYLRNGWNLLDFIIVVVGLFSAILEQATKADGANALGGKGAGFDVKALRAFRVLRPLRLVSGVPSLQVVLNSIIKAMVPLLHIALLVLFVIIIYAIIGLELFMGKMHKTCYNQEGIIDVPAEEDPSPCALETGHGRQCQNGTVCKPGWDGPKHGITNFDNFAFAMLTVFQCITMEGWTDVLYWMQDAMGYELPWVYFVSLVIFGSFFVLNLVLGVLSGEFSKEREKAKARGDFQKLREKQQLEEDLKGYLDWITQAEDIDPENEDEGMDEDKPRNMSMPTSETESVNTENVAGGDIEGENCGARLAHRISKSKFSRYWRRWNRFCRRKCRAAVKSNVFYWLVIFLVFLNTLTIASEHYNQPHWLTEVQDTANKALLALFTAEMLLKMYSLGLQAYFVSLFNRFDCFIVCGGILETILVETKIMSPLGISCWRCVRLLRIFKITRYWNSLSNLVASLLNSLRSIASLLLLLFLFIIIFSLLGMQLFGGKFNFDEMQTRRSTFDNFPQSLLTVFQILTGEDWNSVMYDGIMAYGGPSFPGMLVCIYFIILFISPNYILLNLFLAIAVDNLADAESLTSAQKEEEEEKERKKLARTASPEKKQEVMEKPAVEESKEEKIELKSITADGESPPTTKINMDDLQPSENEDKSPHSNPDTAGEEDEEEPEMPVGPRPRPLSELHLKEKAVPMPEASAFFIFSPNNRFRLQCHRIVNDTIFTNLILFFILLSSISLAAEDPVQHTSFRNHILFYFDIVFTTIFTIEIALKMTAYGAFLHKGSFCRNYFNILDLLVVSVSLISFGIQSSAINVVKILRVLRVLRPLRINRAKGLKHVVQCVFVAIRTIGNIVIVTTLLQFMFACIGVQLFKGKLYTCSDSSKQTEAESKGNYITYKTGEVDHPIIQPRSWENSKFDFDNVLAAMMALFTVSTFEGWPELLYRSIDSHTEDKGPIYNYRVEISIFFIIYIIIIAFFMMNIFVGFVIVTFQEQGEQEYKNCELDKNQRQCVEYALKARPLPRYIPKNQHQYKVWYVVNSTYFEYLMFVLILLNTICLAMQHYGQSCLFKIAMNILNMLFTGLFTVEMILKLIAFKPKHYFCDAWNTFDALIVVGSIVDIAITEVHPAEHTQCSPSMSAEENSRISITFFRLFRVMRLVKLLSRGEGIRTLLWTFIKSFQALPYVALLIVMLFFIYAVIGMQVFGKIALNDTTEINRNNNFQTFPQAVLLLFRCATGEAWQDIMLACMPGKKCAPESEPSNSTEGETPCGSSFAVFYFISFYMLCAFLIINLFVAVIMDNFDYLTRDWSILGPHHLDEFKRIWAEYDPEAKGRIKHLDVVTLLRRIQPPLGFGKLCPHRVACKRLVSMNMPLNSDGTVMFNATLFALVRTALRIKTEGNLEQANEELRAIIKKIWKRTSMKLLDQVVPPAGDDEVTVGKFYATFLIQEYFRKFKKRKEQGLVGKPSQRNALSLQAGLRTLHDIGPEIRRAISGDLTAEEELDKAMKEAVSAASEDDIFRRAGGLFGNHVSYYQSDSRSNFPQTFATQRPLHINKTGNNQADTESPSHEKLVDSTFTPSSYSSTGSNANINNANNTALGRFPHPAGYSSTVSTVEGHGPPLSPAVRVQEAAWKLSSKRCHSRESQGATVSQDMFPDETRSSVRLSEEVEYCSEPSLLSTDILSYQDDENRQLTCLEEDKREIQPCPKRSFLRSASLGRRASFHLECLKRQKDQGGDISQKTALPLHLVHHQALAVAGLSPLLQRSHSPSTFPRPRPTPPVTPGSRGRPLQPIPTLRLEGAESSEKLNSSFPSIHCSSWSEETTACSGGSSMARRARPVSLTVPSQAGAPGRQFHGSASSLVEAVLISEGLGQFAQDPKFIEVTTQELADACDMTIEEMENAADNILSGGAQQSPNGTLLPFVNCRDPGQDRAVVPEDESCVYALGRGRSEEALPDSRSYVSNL
VALUE_TYPE: AC50

Consider the reported AC50 for these compounds:
[
  {
    "COMPOUND": "CN1C2CCCC1CC(NC(=O)c1nn(C)c3ccccc13)C2 (stereo unspecified)",
    "MEASURED_VALUE": "> 10 µM"
  },
  {
    "COMPOUND": "COc1cccc2c1C(=O)c1c(O)c3c(c(O)c1C2=O)C[C@@](O)(C(=O)CO)C[C@@H]3O[C@H]1C[C@H](N)[C@H](O)[C@H](C)O1",
    "MEASURED_VALUE": "> 10 µM"
  },
  {
    "COMPOUND": "CC(C)(Oc1ccc(Cl)cc1)C(=O)OCCOC(=O)c1cccnc1 [ETOFIBRATE]",
    "MEASURED_VALUE": "> 30 µM"
  },
  {
    "COMPOUND": "CC(C)/N=c1\\cc2n(-c3ccc(Cl)cc3)c3ccccc3nc-2cc1Nc1ccc(Cl)cc1",
    "MEASURED_VALUE": "5 µM"
  },
  {
    "COMPOUND": "CCC1(C)CC(=O)NC1=O (stereo unspecified) [ETHOSUXIMIDE]",
    "MEASURED_VALUE": "> 10 µM"
  },
  {
    "COMPOUND": "CC[N+](CC)(CCNC(=O)C(=O)NCC[N+](CC)(CC)Cc1ccccc1Cl)Cc1ccccc1Cl",
    "MEASURED_VALUE": "> 30 µM"
  }
]

What the record says about "CNCCc1ccccn1" : AC50 is > 30 µM

The recorded AC50 for entry CC(C(=O)O)c1ccc(C(=O)c2ccccc2)s1 (stereo unspecified) equals > 10 µM

====

Observed AC50 for Sodium-dependent noradrenaline transporter (Homo sapiens, UniProt P23975), reported per entry below.

Below, each entry is followed by its recorded AC50 result.
[
  {
    "COMPOUND": "N=C(N)NC(=O)Cc1c(Cl)cccc1Cl",
    "AC50": "> 30 µM"
  },
  {
    "COMPOUND": "CCN(CC)C(C)C(=O)c1ccccc1 (centres undefined)",
    "AC50": "> 30 µM"
  },
  {
    "COMPOUND": "CCC(=O)O[C@H](CC(=O)O)C[N+](C)(C)C [LEVOCARNITINE PROPIONATE]",
    "AC50": "> 30 µM"
  },
  {
    "COMPOUND": "O=C(C[S+]([O-])Cc1ccco1)NC/C=C\\COc1cc(CN2CCCCC2)ccn1 (centres undefined)",
    "AC50": "> 10 µM"
  },
  {
    "COMPOUND": "CN(C)CCN(Cc1ccccc1)c1ccccn1",
    "AC50": "13.4 µM"
  }
]

// sample "N[C@@H](Cc1cc(I)c(Oc2cc(I)c(O)c(I)c2)c(I)c1)C(=O)O" , its AC50 was > 30 µM

Entry under test: "CN(C)CCOCC(=O)NC12CC3CC(CC(C3)C1)C2" . Its AC50 was > 30 µM

The recorded AC50 for entry "OCC(CO)N[C@H]1C[C@](O)(CO)[C@@H](O)[C@H](O)[C@H]1O" equals > 30 µM

Reported AC50 for "NS(=O)(=O)c1ccc(N2CCCCS2(=O)=O)cc1" was > 30 µM

====

The entries below come with measured AC50 values attached.
target: 3',5'-cyclic-AMP phosphodiesterase 4D (Homo sapiens, UniProt Q08499); type: functional; also: assay procedure not described here
Sequence (Q08499 whole entry): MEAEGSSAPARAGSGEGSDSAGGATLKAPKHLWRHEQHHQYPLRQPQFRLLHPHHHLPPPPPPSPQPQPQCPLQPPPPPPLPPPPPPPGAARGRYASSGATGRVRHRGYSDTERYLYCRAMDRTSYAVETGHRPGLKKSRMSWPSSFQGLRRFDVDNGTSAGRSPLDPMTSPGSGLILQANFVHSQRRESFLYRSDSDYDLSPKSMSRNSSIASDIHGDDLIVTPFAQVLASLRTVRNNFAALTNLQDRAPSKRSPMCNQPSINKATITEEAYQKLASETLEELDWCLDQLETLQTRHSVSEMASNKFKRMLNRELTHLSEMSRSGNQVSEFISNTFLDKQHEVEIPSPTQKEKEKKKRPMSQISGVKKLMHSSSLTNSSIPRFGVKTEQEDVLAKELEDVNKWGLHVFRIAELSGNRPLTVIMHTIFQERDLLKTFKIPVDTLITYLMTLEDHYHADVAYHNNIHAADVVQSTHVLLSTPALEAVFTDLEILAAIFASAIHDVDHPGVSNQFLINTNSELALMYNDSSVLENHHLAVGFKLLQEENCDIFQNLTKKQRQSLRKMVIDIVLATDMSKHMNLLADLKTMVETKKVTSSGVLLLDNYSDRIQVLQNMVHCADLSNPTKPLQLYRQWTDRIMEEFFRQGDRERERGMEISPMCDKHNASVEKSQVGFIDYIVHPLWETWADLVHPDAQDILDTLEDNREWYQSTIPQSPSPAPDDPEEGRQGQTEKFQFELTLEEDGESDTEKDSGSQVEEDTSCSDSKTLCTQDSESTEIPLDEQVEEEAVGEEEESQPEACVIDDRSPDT

[
  {
    "COMPOUND": "CS(=O)(=O)Nc1ccc([N+](=O)[O-])cc1Oc1ccccc1 [NIMESULIDE]",
    "AC50": "> 30 µM"
  },
  {
    "COMPOUND": "CC1NCCOC1c1ccccc1 (centres undefined) [PHENMETRAZINE]",
    "AC50": "> 30 µM"
  },
  {
    "COMPOUND": "CCC1(c2ccccc2)C(=O)NCNC1=O [PRIMIDONE]",
    "AC50": "> 30 µM"
  },
  {
    "COMPOUND": "NCCCCCC(=O)O [AMINOCAPROIC ACID]",
    "AC50": "> 30 µM"
  },
  {
    "COMPOUND": "CCN(C(C)=O)c1cccc(-c2ccnc3c(C#N)cnn23)c1 [ZALEPLON]",
    "AC50": "> 30 µM"
  },
  {
    "COMPOUND": "CC(C)CN(C[C@@H](O)[C@H](Cc1ccccc1)NC(=O)O[C@H]1CCOC1)S(=O)(=O)c1ccc(N)cc1",
    "AC50": "> 30 µM"
  },
  {
    "COMPOUND": "CCOc1cc2ncc(C#N)c(Nc3ccc(OCc4ccccn4)c(Cl)c3)c2cc1NC(=O)/C=C/CN(C)C [NERATINIB]",
    "AC50": "6.9 µM"
  },
  {
    "COMPOUND": "C[C@]12CCC(=O)C=C1CC[C@H]1[C@@H]3CC[C@](O)(C(=O)CO)[C@@]3(C)C[C@H](O)[C@@]12F [FLUDROCORTISONE]",
    "AC50": "> 30 µM"
  }
]

AC50 recorded for this compound, O=C(O)COC(=O)Cc1ccccc1Nc1c(Cl)cccc1Cl [ACECLOFENAC] , is > 30 µM
